MEASURED_TARGET: UniProt:P43115
Sequence (P43115 whole entry): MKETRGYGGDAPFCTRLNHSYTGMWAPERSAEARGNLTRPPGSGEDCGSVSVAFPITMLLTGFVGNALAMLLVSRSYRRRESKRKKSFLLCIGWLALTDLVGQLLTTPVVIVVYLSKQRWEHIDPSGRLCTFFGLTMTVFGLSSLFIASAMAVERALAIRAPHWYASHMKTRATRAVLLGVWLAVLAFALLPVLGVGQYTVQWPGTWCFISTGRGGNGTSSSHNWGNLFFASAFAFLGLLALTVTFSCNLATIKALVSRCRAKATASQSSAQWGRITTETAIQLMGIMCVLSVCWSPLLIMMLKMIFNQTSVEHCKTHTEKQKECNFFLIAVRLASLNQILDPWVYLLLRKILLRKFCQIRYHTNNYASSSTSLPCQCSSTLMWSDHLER
ASSAY_NOTES: Displacement of [3H]PGE2 from human EP3 receptor in presence of 10% human serum
METRIC: IC50 (nM)
Write the answer as a number in nM, unit excluded.

Take a look at these entries with their results.
O=C(/C=C/c1cccc2c1N(Cc1ccc3ccccc3c1)C(=O)C2)NS(=O)(=O)c1cc(Cl)c(Cl)s1; 5.4
O=C(/C=C/c1cccc2c1N(Cc1ccc3ccccc3c1)C(=O)C2(F)F)NS(=O)(=O)c1cccc(Cl)c1; 1.9
CC1C(=O)N(Cc2ccc3ccccc3c2)c2c(/C=C/C(=O)NS(=O)(=O)c3cccc(Cl)c3)cccc21 (centres undefined); 2.8

# input for lookup
Query: IC50; subject: O=C(/C=C/c1cccc2c1N(Cc1ccc(F)c(F)c1)C(=O)C2(F)F)NS(=O)(=O)c1ccc(F)c(F)c1
251

* * *

MEASURED_TARGET: Cytochrome P450 3A4 (Homo sapiens, UniProt P08684)
Sequence (P08684 whole entry): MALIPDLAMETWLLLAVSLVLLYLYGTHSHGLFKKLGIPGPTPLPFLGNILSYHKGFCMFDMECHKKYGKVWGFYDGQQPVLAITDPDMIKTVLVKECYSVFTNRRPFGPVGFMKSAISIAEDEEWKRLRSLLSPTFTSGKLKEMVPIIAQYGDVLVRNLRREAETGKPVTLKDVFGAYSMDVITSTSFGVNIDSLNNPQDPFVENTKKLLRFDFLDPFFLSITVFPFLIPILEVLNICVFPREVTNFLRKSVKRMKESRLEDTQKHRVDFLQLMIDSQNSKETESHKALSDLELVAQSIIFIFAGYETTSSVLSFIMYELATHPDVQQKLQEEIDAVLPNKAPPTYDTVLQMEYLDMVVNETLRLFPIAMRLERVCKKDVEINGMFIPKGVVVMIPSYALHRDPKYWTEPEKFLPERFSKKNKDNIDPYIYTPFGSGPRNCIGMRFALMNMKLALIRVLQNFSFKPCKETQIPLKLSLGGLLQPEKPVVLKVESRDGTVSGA
ASSAY_NOTES: Inhibition of human CYP3A4 using 7-benzyloxy-4-trifluoromethylcoumarin as substrate
Format: ADME
METRIC: inhibition (INH)

Take a look at these entries with their results.
O=C(/C=C/c1cccc2c1N(Cc1ccc3ccccc3c1)C(=O)C2(F)F)NS(=O)(=O)c1cc(F)c(F)cc1F; Active
O=C(/C=C/c1cccc2c1N(Cc1ccc(F)c(F)c1)C(=O)C2(F)F)NS(=O)(=O)c1cccc(Cl)c1; Active
O=C(/C=C/c1cccc2c1N(Cc1ccc3ccccc3c1)C(=O)C2(F)F)NS(=O)(=O)c1ccc(Cl)cc1; Active
O=C(/C=C/c1cccc2c1N(Cc1ccc3ccccc3c1)C(=O)C2(F)F)NS(=O)(=O)c1cc(Cl)c(Cl)s1; Active
O=C(/C=C/c1cccc2c1N(Cc1ccc(Cl)cc1Cl)C(=O)C2(F)F)NS(=O)(=O)c1ccc(Cl)c(Cl)c1; Active
O=C(/C=C/c1cccc2c1N(Cc1ccc3ccccc3c1)C(=O)C2O)NS(=O)(=O)c1cc(F)c(F)cc1F (stereo not drawn); Not Active
O=C(/C=C/c1cccc2c1N(Cc1ccc3ccccc3c1)C(=O)C2O)NS(=O)(=O)c1ccc(F)c(F)c1 (stereo not drawn); Not Active

# input for lookup
Tell me reported inhibition (INH) for O=C(/C=C/c1cccc2c1N(Cc1ccc3ccccc3c1)C(=O)C2(F)F)NS(=O)(=O)c1cccs1 , tested with Cytochrome P450 3A4 (Homo sapiens, UniProt P08684).
Active

* * *

# maps each entry to its pIC50
MEASURED_TARGET: Prostaglandin E2 receptor EP3 subtype (Homo sapiens)
ASSAY_NOTES: Displacement of [3H]PGE2 from human EP3 receptor in presence of 10% human serum
// scale note: pIC50 = -log10(conc_M); give the bare number

Take a look at these entries with their results.
O=C(/C=C/c1cccc2c1N(Cc1ccc3ccccc3c1)C(=O)C2=O)NS(=O)(=O)c1ccc(F)cc1; 7.47
O=C(/C=C/c1cccc2c1N(Cc1ccc(Cl)cc1Cl)C(=O)C2(F)F)NS(=O)(=O)c1cc(Cl)c(Cl)s1; 7.19
O=C(/C=C/c1cccc2c1N(Cc1ccc3ccccc3c1)C(=O)C2=O)NS(=O)(=O)c1cc(F)c(F)cc1F; 7.76

Query: pIC50; subject: O=C(/C=C/c1cccc2c1N(Cc1ccc3ccccc3c1)C(=O)C2=O)NS(=O)(=O)c1cc(Cl)c(Cl)s1
7.82

And for CC1C(=O)N(Cc2ccc(Cl)cc2Cl)c2c(/C=C/C(=O)NS(=O)(=O)c3cccc(Cl)c3)cccc21 (configuration not stated) ?
8.17

And for O=C(/C=C/c1cccc2c1N(Cc1ccc3ccccc3c1)C(=O)C2(CO)CO)NS(=O)(=O)c1ccc(F)c(F)c1 ?
6.73

And for O=C(/C=C/c1cccc2c1N(Cc1ccc3ccccc3c1)C(=O)C2(F)F)NS(=O)(=O)c1cc(Cl)c(Cl)s1 ?
7.68

And for CC1C(=O)N(Cc2ccc3ccccc3c2)c2c(/C=C/C(=O)NS(=O)(=O)c3cc(F)c(F)cc3F)cccc21 (configuration not stated) ?
8.27

And for CC1C(=O)N(Cc2ccc3ccccc3c2)c2c(/C=C/C(=O)NS(=O)(=O)c3cc(Cl)c(Cl)s3)cccc21 (configuration not stated) ?
8.49
